- ASSAY: Pharmacokinetic analysis in mouse plasma and brain after a single i.p. injection
- Assay type: in vivo
- MEASUREMENT CONTEXT: both sexes, brain, intraperitoneal, wildtype mice P21-28, 10 mg/kg i.p., 30 min, n = 4, read-out: Brain concentration, average
MEASUREMENT KIND: concentration at 30 min (ng/g)
All answers are understood in ng/g, so give the number only.

Q: # get_value(readout='concentration at 30 min', item= COc1ccc(CNCCC(c2ccccc2)c2ccc3c(c2)OCO3)cc1 (stereo not shown) [CID2921524] )
A: 1530

---

- ASSAY: Pharmacokinetic analysis in mouse plasma and brain after a single i.p. injection
- Format: in vivo
- MEASUREMENT CONTEXT: both sexes, brain and plasma, ip, 10 mg/kg i.p., read-out: brain-plasma ratio (total exposure by AUC values)
MEASUREMENT KIND: Kp
Number only, please.

Q: # get_value(readout='Kp', item= COc1ccc(CNCCC(c2ccccc2)c2ccc3c(c2)OCO3)cc1 (stereo not shown) )
A: 1.4
